# test: Proteolysis during production detected using mass spectroscopy
# Format: physicochemical
# applied.conditions: proteolytic stability
reported.endpoint: Proteolysis During Production?

>>> experimental_value("ELA-L: Fc-linker fusion of elabela analogue KLRKHNCATRRCMPLHSRVPFP (L8A, Q9T) (protein) MRAWIFFLLCLAGRALADKTHTSPPSPAPEAAGGPSVFLFPPKPKDTLMISRTPEVTCVVVDVSHEDPEVKFNWYVDGVEVHNAKTKPREEQYNSTYRVVSVLTVLHQDWLNGKEYKCKVSNKALPAPIEKTISKAKGQPREPQVYTLPPSREEMTKNQVNLTCLVKGFYPSDIAVEWESNGQPENNYKTTPPVLDSDGSFFLNSTLTVDKSRWQQGNVFSCSVMHEALHNHYTQKSLSLSPGKGGGGSGGGGSGGGGSKLRKHNCATRRCMPLHSRVPFP")
"No"
>>> experimental_value("APL-B: Fc-linker fusion of apelin analogue QRPRLSHKGPMVF (P12V) (protein) MRAWIFFLLCLAGRALADKTHTSPPSPAPEAAGGPSVFLFPPKPKDTLMISRTPEVTCVVVDVSHEDPEVKFNWYVDGVEVHNAKTKPREEQYNSTYRVVSVLTVLHQDWLNGKEYKCKVSNKALPAPIEKTISKAKGQPREPQVYTLPPSREEMTKNQVNLTCLVKGFYPSDIAVEWESNGQPENNYKTTPPVLDSDGSFFLNSTLTVDKSRWQQGNVFSCSVMHEALHNHYTQKSLSLSPGKGGGGSGGGGSGGGGSQRPRLSHKGPMVF")
"No"

Origin of measurements: patent US20240383958A1
